- Test system: Clostridium perfringens
- assay name: Antimicrobial activity against Clostridium perfringens 2 by serial dilution method
- Assay type: functional
- cond: Clostridium perfringens, 2
measured metric: MIC (ng/mL)
Express the result in ng/mL but write the number alone.

# value of MIC, Clostridium perfringens, item CO[C@H]1/C=C/O[C@@]2(C)Oc3c(C)c(O)c4c(O)c(c(/C=N/NC(=O)CN5CCN(c6ccc(C(C)(C)C)cc6)CC5)c(O)c4c3C2=O)NC(=O)/C(C)=C\C=C\[C@H](C)[C@H](O)[C@@H](C)[C@@H](O)[C@@H](C)[C@H](OC(C)=O)[C@@H]1C = 2

# value of MIC, Clostridium perfringens, item CO[C@H]1/C=C/O[C@@]2(C)Oc3c(C)c(O)c4c(O)c(c(/C=N/NC(=O)CN5CCN(c6ccc(Oc7ccccc7)cc6)CC5)c(O)c4c3C2=O)NC(=O)/C(C)=C\C=C\[C@H](C)[C@H](O)[C@@H](C)[C@@H](O)[C@@H](C)[C@H](OC(C)=O)[C@@H]1C = 8

# value of MIC, Clostridium perfringens, item CCc1ccc(N2CCN(CC(=O)N/N=C/c3c4c(O)c5c(O)c(C)c6c(c5c3O)C(=O)[C@@](C)(O/C=C/[C@H](OC)[C@@H](C)[C@@H](OC(C)=O)[C@H](C)[C@H](O)[C@H](C)[C@@H](O)[C@@H](C)/C=C/C=C(/C)C(=O)N4)O6)CC2)cc1 = 3

# value of MIC, Clostridium perfringens, item CO[C@H]1/C=C/O[C@@]2(C)Oc3c(C)c(O)c4c(O)c(c(/C=N/NC(=O)CN5CCN(c6ccc(C(C)C)cc6)CC5)c(O)c4c3C2=O)NC(=O)/C(C)=C\C=C\[C@H](C)[C@H](O)[C@@H](C)[C@@H](O)[C@@H](C)[C@H](OC(C)=O)[C@@H]1C = 3

====

- Test system: Clostridium perfringens
- assay name: Antimicrobial activity against Clostridium perfringens 2 by serial dilution method
- Type: functional
- cond: Clostridium perfringens, 2
measured metric: MIC (ng/mL)
Express the result in ng/mL but write the number alone.

MIC reading for CO[C@H]1/C=C/O[C@@]2(C)Oc3c(C)c(O)c4c(O)c(c(/C=N/NC(=O)CN5CCN(c6ccc(NC(C)=O)cc6)CC5)c(O)c4c3C2=O)NC(=O)/C(C)=C\C=C\[C@H](C)[C@H](O)[C@@H](C)[C@@H](O)[C@@H](C)[C@H](OC(C)=O)[C@@H]1C : 10

MIC reading for CO[C@H]1/C=C/O[C@@]2(C)Oc3c(C)c(O)c4c(O)c(c(/C=N/NC(=O)CN5CCN(c6ccc(F)cc6)CC5)c(O)c4c3C2=O)NC(=O)/C(C)=C\C=C\[C@H](C)[C@H](O)[C@@H](C)[C@@H](O)[C@@H](C)[C@H](OC(C)=O)[C@@H]1C : 5

====

For each of the molecules below, state its MIC.
- System: Bacillus subtilis
- assay name: Antimicrobial activity against Bacillus subtilis 104 by serial dilution method
- Type: functional
- cond: Bacillus subtilis, 104

MIC reading for COc1ccc(N2CCN(CC(=O)N/N=C/c3c4c(O)c5c(O)c(C)c6c(c5c3O)C(=O)[C@@](C)(O/C=C/[C@H](OC)[C@@H](C)[C@@H](OC(C)=O)[C@H](C)[C@H](O)[C@H](C)[C@@H](O)[C@@H](C)/C=C/C=C(/C)C(=O)N4)O6)CC2)cc1 : 11.3 µg/mL

MIC reading for CO[C@H]1/C=C/O[C@@]2(C)Oc3c(C)c(O)c4c(O)c(c(/C=N/NC(=O)CN5CCN(c6ccc(Oc7ccccc7)cc6)CC5)c(O)c4c3C2=O)NC(=O)/C(C)=C\C=C\[C@H](C)[C@H](O)[C@@H](C)[C@@H](O)[C@@H](C)[C@H](OC(C)=O)[C@@H]1C : 5 µg/mL

MIC reading for CO[C@H]1/C=C/O[C@@]2(C)Oc3c(C)c(O)c4c(O)c(c(/C=N/NC(=O)CN5CCN(c6ccc(F)cc6)CC5)c(O)c4c3C2=O)NC(=O)/C(C)=C\C=C\[C@H](C)[C@H](O)[C@@H](C)[C@@H](O)[C@@H](C)[C@H](OC(C)=O)[C@@H]1C : 4.8 µg/mL

MIC reading for CCc1ccc(N2CCN(CC(=O)N/N=C/c3c4c(O)c5c(O)c(C)c6c(c5c3O)C(=O)[C@@](C)(O/C=C/[C@H](OC)[C@@H](C)[C@@H](OC(C)=O)[C@H](C)[C@H](O)[C@H](C)[C@@H](O)[C@@H](C)/C=C/C=C(/C)C(=O)N4)O6)CC2)cc1 : 5.5 µg/mL

MIC reading for CO[C@H]1/C=C/O[C@@]2(C)Oc3c(C)c(O)c4c(O)c(c(/C=N/NC(=O)CN5CCN(c6ccc(C(F)(F)F)cc6)CC5)c(O)c4c3C2=O)NC(=O)/C(C)=C\C=C\[C@H](C)[C@H](O)[C@@H](C)[C@@H](O)[C@@H](C)[C@H](OC(C)=O)[C@@H]1C : 9.8 µg/mL

MIC reading for CO[C@H]1/C=C/O[C@@]2(C)Oc3c(C)c(O)c4c(O)c(c(/C=N/N5CCN(C)CC5)c(O)c4c3C2=O)NC(=O)/C(C)=C\C=C\[C@H](C)[C@H](O)[C@@H](C)[C@@H](O)[C@@H](C)[C@H](OC(C)=O)[C@@H]1C : 0.21 µg/mL

MIC reading for CO[C@H]1/C=C/O[C@@]2(C)Oc3c(C)c(O)c4c(O)c(c(/C=N/NC(=O)CN5CCN(c6ccc(Cl)cc6)CC5)c(O)c4c3C2=O)NC(=O)/C(C)=C\C=C\[C@H](C)[C@H](O)[C@@H](C)[C@@H](O)[C@@H](C)[C@H](OC(C)=O)[C@@H]1C : 4.8 µg/mL

MIC reading for CO[C@H]1/C=C/O[C@@]2(C)Oc3c(C)c(O)c4c(O)c(c(/C=N/NC(=O)CN5CCN(c6ccc(NC(C)=O)cc6)CC5)c(O)c4c3C2=O)NC(=O)/C(C)=C\C=C\[C@H](C)[C@H](O)[C@@H](C)[C@@H](O)[C@@H](C)[C@H](OC(C)=O)[C@@H]1C : 12 µg/mL
